Molecular target: CSNK1E (human)
Assay: radiometric filter-binding kinase assay, Kinase HotSpot
Settings: compound 0.5 µM; ATP 10 µM
property: residual activity (%)

mol | system | units of measure | val
Cn1cnc2cc3c(Nc4cccc(Br)c4)ncnc3cc21 | CSNK1E (human) | % | 90.3
CC(C)c1nn(-c2c(Cl)cccc2Cl)c2nc(Cc3ccc(OCCO)cc3)nc(O)c12 | CSNK1E (human) | % | 83.6
COc1ccc(CNC(=O)Nc2ncc([N+](=O)[O-])s2)cc1 | CSNK1E (human) | % | 102
O=C(Nc1cccc(Nc2cc(Nc3cccc(C(F)(F)F)c3)ncn2)c1)C1CC1 | CSNK1E (human) | % | 98.1
O=C1NC(=O)/C(=C\c2ccc3nccnc3c2)S1 | CSNK1E (human) | % | 92.3
O=C1NC(=O)C(c2cn(CCCO)c3ncccc23)=C1c1cnccn1 | CSNK1E (human) | % | 93.9
O=C1NC(=O)C(c2c[nH]c3ccccc23)=C1c1c[nH]c2ccccc12 | CSNK1E (human) | % | 92.4
CCN(CC)CCCCN1c2ccccc2Oc2ccc(Cl)cc21 | CSNK1E (human) | % | 112
CCn1cnc2c(Nc3cccc(Cl)c3)nc(N[C@@H]3CCCC[C@@H]3N)nc21 | CSNK1E (human) | % | 92.1
Cc1nc2cc3nc(-c4cccs4)cnc3cc2n1C | CSNK1E (human) | % | 94.5
Cn1sc(=O)n(Cc2ccccc2)c1=O | CSNK1E (human) | % | 100
COc1cc2ncnc(N3CCN(C(=O)Nc4ccc(Oc5ccccc5)cc4)CC3)c2cc1OC | CSNK1E (human) | % | 94.6
CN(C)C[C@H]1CCn2c(c(C3=C(c4cn(C)c5ccccc45)C(=O)NC3=O)c3ccccc32)C1 | CSNK1E (human) | % | 99.7
Cn1nc2c3c(cccc31)C(=O)c1ccccc1-2 | CSNK1E (human) | % | 34.3
O=C1Nc2ccccc2/C1=C1\Nc2ccccc2\C1=N/O | CSNK1E (human) | % | 46.1
Oc1ccc(Nc2nc(-c3ccc(Cl)cc3)cs2)cc1 | CSNK1E (human) | % | 103
COc1ccc(OC)c2c(=S)c3ccccc3[nH]c12 | CSNK1E (human) | % | 90.3
O=C1Cc2c([nH]c3ccc(Br)cc23)-c2ccccc2N1 | CSNK1E (human) | % | 103
O=C(O)/C=C/c1cc(Br)c(Br)c(Br)c1Br | CSNK1E (human) | % | 83.6
